Data credit: patent US20170037028A1

Molecular target: GLUT1 (Homo sapiens)
Sequence (P11166 whole entry, species assumed): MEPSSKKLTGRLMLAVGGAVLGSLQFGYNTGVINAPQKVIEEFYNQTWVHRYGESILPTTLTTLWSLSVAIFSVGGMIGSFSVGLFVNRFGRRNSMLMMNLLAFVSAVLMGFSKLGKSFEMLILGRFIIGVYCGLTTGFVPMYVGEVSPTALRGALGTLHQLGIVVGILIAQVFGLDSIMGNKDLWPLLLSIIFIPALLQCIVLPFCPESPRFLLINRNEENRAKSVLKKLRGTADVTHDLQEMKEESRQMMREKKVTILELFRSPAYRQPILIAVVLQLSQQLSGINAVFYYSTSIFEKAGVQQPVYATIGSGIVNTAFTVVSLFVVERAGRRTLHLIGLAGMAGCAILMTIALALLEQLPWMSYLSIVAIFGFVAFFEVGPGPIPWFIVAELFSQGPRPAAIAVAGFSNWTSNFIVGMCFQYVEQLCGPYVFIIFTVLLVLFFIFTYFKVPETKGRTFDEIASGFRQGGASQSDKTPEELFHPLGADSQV
Assay: Indirect measurement of GLUT1 activity by quantification of intracellular ATP levels (glucose induced ATP increase)
Format: cell-based
Parameters: endogenous in cells; host or cells: DLD1 or CHO-K1
Settings: read-out: IC50 regarding glucose induced ATP increase (GLUT1 inhibition)
MEASUREMENT_LABEL: log10(IC50) (log10 of the value in nM)
Lab note - IC50 converted to log10 from values in nM.

Which log10(IC50) reading was recorded for the compound `COc1cc(C(=O)Nc2c(C)nn(Cc3ccc(C#N)cc3)c2C)c2cc(F)ccc2n1` ?
0.82

Let us now turn to `Cc1nn(Cc2cccc(OC(F)(F)F)c2)c(C)c1NC(=O)c1cc(C(N)=O)nc2cc(F)c(Cl)cc12`
1.06

Item: `Cc1nn(Cc2cccc(C#N)n2)c(C)c1NC(=O)c1cc(C(N)=O)nc2cc(F)ccc12`
2.09

// same read-out, input: `Cc1nn(Cc2ccc(C(=O)Nc3cccc(Cl)c3)cc2)c(C)c1NC(=O)c1cc(C(F)(F)F)nc2ccc(Br)cc12`
1.28

Query `Cc1c(NC(=O)c2cc(C(N)=O)nc3cc(F)c(Cl)cc23)c(C(F)(F)F)nn1Cc1nc(C(=O)O)co1` next
3.11

For Cc1nn(CC2CCCO2)c(C)c1NC(=O)c1cc(C(F)(F)F)nc2ccc(Br)cc12 (centres unmarked) then?
2.31

Here is the next compound: `CNC(=O)c1nn(Cc2ccc(F)cc2)c(C)c1NC(=O)c1cc(OC)nc2ccccc12`
3.29

For `Cc1c(NC(=O)c2cc(C(N)=O)nc3cc(F)ccc23)c(C(F)(F)F)nn1Cc1ccc(C(F)(F)F)cc1` then?
0.99

One more compound: `Cc1c(NC(=O)c2cc(C(N)=O)nc3cc(F)ccc23)c(C(F)(F)F)nn1Cc1ccc(C(N)=O)cc1`
1.09

Moving on to `COC(=O)Cc1ccc(Cn2nc(C)c(NC(=O)c3cc(C(F)(F)F)nc4ccc(Br)cc34)c2C)cc1`
1.07

Then what about the compound `Cc1cc(Cn2nc(C)c(NC(=O)c3cc(C(N)=O)nc4ccccc34)c2C)no1` ?
1.97

And what about the compound `Cc1nn(Cc2cccnc2C#N)c(C)c1NC(=O)c1cc(C(N)=O)nc2ccccc12` ?
1.05

Could you do the same for `Cc1nn(Cc2cccc(C(F)(F)F)c2)c(C)c1NC(=O)c1cc(C(F)(F)F)nc2c(Cl)cc(Cl)cc12` , please?
4.05

Follow-up item: `Cc1c(NC(=O)c2cc(C(N)=O)nc3cc(F)c(Cl)cc23)c(C(F)(F)F)nn1Cc1cc(C(C)C)no1`
2.06

Moving on to the next compound: `COC(=O)c1ccc2nc(C(F)(F)F)cc(C(=O)Nc3c(C)nn(Cc4ccc(F)cc4)c3C)c2c1`
1.07

Then this compound: `Cc1c(NC(=O)c2cc(C(N)=O)nc3cccc(F)c23)c(C(F)(F)F)nn1Cc1ccc(OC(F)(F)F)cc1`
0.88

Now the compound `Cc1nn(Cc2ccc(C#N)nc2)c(C)c1NC(=O)c1cc(C(F)(F)F)nc2ccc(Br)cc12`
0.91

Consider next the compound `C#CCNC(=O)c1ccc(Cn2nc(C)c(NC(=O)c3cc(C(F)(F)F)nc4ccc(Br)cc34)c2C)cc1` in the same way.
2.03

Next record, please: `Cc1nn(Cc2cccnc2)c(C)c1NC(=O)c1cc(C(F)(F)F)nc2ccc(Br)cc12`
1.76

Okay, and `Cc1nn(Cc2ccc(C(=O)NCCCn3ccnc3)cc2)c(C)c1NC(=O)c1cc(C(F)(F)F)nc2ccc(Br)cc12` ?
1.56

Try the compound `Cc1nn(Cc2ccc(C#N)cc2)c(C)c1NC(=O)c1cc(C(=O)NCCN2CCOCC2)nc2cc(F)ccc12`
2.38

Ok, now `Cc1nn(Cc2ccc(C(=O)NCc3ccc(F)cc3)cc2)c(C)c1NC(=O)c1cc(C(F)(F)F)nc2ccc(Br)cc12`
1.81

Queued: `CNC(=O)c1nc(Cn2nc(C(F)(F)F)c(NC(=O)c3cc(C(N)=O)nc4ccccc34)c2C)no1`
1.73

Field entry: `Cc1nn(Cc2ccc(C(=O)NCCN3CCOCC3)cn2)c(C)c1NC(=O)c1cc(C(F)(F)F)nc2ccc(Br)cc12`
2.53

Entry to check: `COc1ccc(Cn2nc(C(F)(F)F)c(NC(=O)c3cc(C(N)=O)nc4cc(F)c(Cl)cc34)c2C)cc1`
0.15

Same lookup for `Cc1nn(Cc2ccc(F)cc2)c(C)c1NC(=O)c1ccnc2ccc(Br)cc12` , please.
2.04

What do you get for `COc1ccc(Cn2nc(C)c(NC(=O)c3cc(C(F)(F)F)nc4ccc(Br)cc34)c2C)cc1` ?
0.49

Next: `COc1ccc(Cn2nc(C(F)(F)F)c(NC(=O)c3cc(C(F)(F)F)nc4ccc(Br)cc34)c2C)cc1`
0.70

And the next one, `Cc1nn(Cc2ccc(C(=O)NCCO)cn2)c(C)c1NC(=O)c1cc(C(N)=O)nc2ccc(F)cc12` ?
3.22

###

Biological target: UniProt:P11166
Test: Indirect measurement of GLUT1 activity by quantification of intracellular ATP levels (glucose induced ATP increase)
Format: cell-based
Design: endogenous in cells; host or cells: DLD1 or CHO-K1
Details: read-out: IC50 regarding glucose induced ATP increase (GLUT1 inhibition)
I'd appreciate it if you could supply IC50 values for the items below.
Please respond with the number in nM and leave the unit unwritten.

What does the data say about its IC50? Entry: `Cc1nn(Cc2ccc(C(=O)NCc3cccnc3)cc2)c(C)c1NC(=O)c1cc(C(F)(F)F)nc2ccc(Br)cc12`
18.1

# repeat for `COc1cccc(Cn2nc(C(F)(F)F)c(NC(=O)c3cc(C(N)=O)nc4ccccc34)c2C)c1`
6.9

Same thing, different compound: `Cc1nn(Cc2ccc(F)cc2)c(C)c1NC(=O)c1cc(C(N)=O)nc2ccc(F)cc12`
4.6

Follow-up item: `Cc1c(NC(=O)c2cc(C(N)=O)nc3c(F)cc(Cl)cc23)c(C(F)(F)F)nn1Cc1ccc(C#N)cc1`
1.1

Again, but for `COc1ccc(Cn2nc(C(F)(F)F)c(NC(=O)c3cc(C(N)=O)nc4cc(F)c(F)cc34)c2C)cc1`
1.4

And `Cc1nn(Cc2ccccc2C(F)(F)F)c(C)c1NC(=O)c1cc(C(F)(F)F)nc2ccc(Br)cc12` ?
11100

And then `COc1cc(Cn2nc(C(F)(F)F)c(NC(=O)c3cc(C(N)=O)nc4cc(F)ccc34)c2C)ccc1C#N` , what is it?
2.6

###

Biological target: GLUT1 (Homo sapiens)
Test: Indirect measurement of GLUT1 activity by quantification of intracellular ATP levels (glucose induced ATP increase)
Type: cell-based
Set-up: endogenous in cells; host or cells: DLD1 or CHO-K1
Details: read-out: IC50 regarding glucose induced ATP increase (GLUT1 inhibition)
Excerpt: Indirect Measurement of GLUT1 and GLUT2 Activity by Quantification of Intracellular ATP Levels It is well known that a combination of small-molecule inhibitors of mitochondrial electron transport chain and glucose catabolism synergistically suppress ATP production and impair cellular viability (Ulanovskaya et al., 2008, 2011; Liu, et al. 2001). We therefore used DLD1 or CHO-K1 cells in combination with an oxidative phosphorylation inhibitor to identify GLUT1 and GLUT2 inhibitors. […]
Can you tell me IC50 for the items I'm about to list?
Field: numeric (nM). Do not append units.

Could you share what IC50 was measured for `Cc1c(NC(=O)c2cc(C(N)=O)nc3cccc(F)c23)c(C(F)(F)F)nn1Cc1ccc(CC(F)(F)F)cc1` , tested on GLUT1 (Homo sapiens)?
1.5

What do you get for `COCCNC(=O)c1ccc(Cn2nc(C(F)(F)F)c(NC(=O)c3cc(C(F)(F)F)nc4ccc(Br)cc34)c2C)nc1` ?
59.4

Note, next up: `COc1ccccc1Cn1nc(C)c(NC(=O)c2cc(C(F)(F)F)nc3ccc(Br)cc23)c1C`
3410

Cool, now COc1cc(C(=O)Nc2c(C)nn(C(C)c3ccc(F)cc3)c2C)c2ccccc2n1 (stereo not shown)
15.1

Now the molecule `CCc1cc(Cn2nc(C)c(NC(=O)c3cc(C(N)=O)nc4ccccc34)c2C)on1`
37.6

Further, for `Cc1nn(Cc2ccccc2F)c(C)c1NC(=O)c1cc(C(F)(F)F)nc2c(Cl)cc(Cl)cc12` ?
304

Same thing, different molecule: `Cc1ccc2nc(C(N)=O)cc(C(=O)Nc3c(C)nn(Cc4ccc(F)cc4)c3C)c2c1`
1.7

###

Provide the reported pIC50 of each item.
Target: GLUT1 (Homo sapiens)
Test: Indirect measurement of GLUT1 activity by quantification of intracellular ATP levels (glucose induced ATP increase)
Format: cell-based
Set-up: endogenous in cells; host or cells: DLD1 or CHO-K1
Details: read-out: IC50 regarding glucose induced ATP increase (GLUT1 inhibition)
API: returns pIC50 as number; meaning -log10 of concentration in mol/L.

Enter reported pIC50 observed with GLUT1 (Homo sapiens) for Cc1cc(F)ccc1Cn1nc(C(F)(F)F)c(NC(=O)c2cc(C(N)=O)nc3ccccc23)c1C [Example 1713]
8.30

Could you do the same for Cc1nn(CC2CCN(C(=O)OC(C)(C)C)CC2)c(C)c1NC(=O)c1cc(C(F)(F)F)nc2ccc(Br)cc12 [Example 1201] , please?
6.37

What do we get for CCc1nn(Cc2ccc(C#N)cc2)c(CC)c1NC(=O)c1cc(C(F)(F)F)nc2ccc(Br)cc12 [Example 309] ?
6.44

How about Cc1nn(Cc2ccc(S(C)(=N)=O)cc2)c(C)c1NC(=O)c1cc(C(N)=O)nc2ccccc12 (racemic) [Example 377] ?
5.96

Then what about the molecule CCc1noc(Cn2nc(C)c(NC(=O)c3cc(C(N)=O)nc4ccccc34)c2C)n1 [Example 1571] ?
7.19

Moving on to Cc1cc(C(=O)Nc2c(C)nn(Cc3ccc(F)c(F)c3)c2C)c2cc(Br)ccc2n1 [Example 185]
6.91

Now this one: Cc1c(NC(=O)c2cc(C(N)=O)nc3ccccc23)c(C(F)(F)F)nn1Cc1ccc(F)cc1C#N [Example 1659]
8.33

Here is the next molecule: Cc1nn(Cc2ccn(C)n2)c(C)c1NC(=O)c1cc(C(N)=O)nc2ccccc12 [Example 1569]
7.17

Thanks! And Cc1c(NC(=O)c2cc(C(N)=O)nc3cccc(F)c23)c(C(F)(F)F)nn1Cc1ccccc1OC(F)(F)F [Example 1706] ?
6.21

Moving on to the next molecule: Cc1c(NC(=O)c2cc(C(N)=O)nc3ccccc23)c(C(F)(F)F)nn1C(C)c1ccc(C#N)cc1 (racemic) [Example 333]
9.22

Next molecule: Cc1nn(Cc2ccc(C#N)cc2)c(C)c1NC(=O)c1cc(C(F)(F)F)nc2cc(F)c(F)cc12 [Example 169]
7.30

// query: Cc1cc(Cn2nc(C(F)(F)F)c(NC(=O)c3cc(C(N)=O)nc4cccc(F)c34)c2C)ccc1C#N [Example 1694]
8.92

Check Cc1c(NC(=O)c2cc(C(N)=O)nc3cccc(O)c23)c(C(F)(F)F)nn1Cc1ccc(C#N)cc1 [Example 1565] too.
7.68

What about Cc1nn(Cc2ccc(C(=O)Nc3cc[nH]n3)cc2)c(C)c1NC(=O)c1cc(C(F)(F)F)nc2ccc(Br)cc12 [Example 1055] ?
7.84

Try the molecule Cc1nn(Cc2ccc(Cl)cc2)c(C)c1NC(=O)c1cc(C(F)(F)F)nc2ccc(Br)cc12 [Example 148]
7.94

Moving on to Cc1nn(Cc2ccc(C#N)nc2)c(C)c1NC(=O)c1cc(C(N)=O)nc2cc(F)ccc12 [Example 292]
7.77

Repeat with Cc1nn(Cc2ccc(F)cc2)c(C)c1NC(=O)c1cc(C(F)(F)F)nc2ccc(F)cc12 [Example 30]
7.71

Likewise for Cc1nn(Cc2ccc(C(=O)Nc3ccccc3)cc2)c(C)c1NC(=O)c1cc(C(F)(F)F)nc2ccc(Br)cc12 [Example 134] ?
8.18

Again, but for Cc1nn(Cc2ccc(F)cc2)c(C)c1NC(=O)c1cc(N(C)C)nc2ccccc12 [Example 163]
7.60

Same for Cc1nn(Cc2ccc(C#N)cc2)c(C)c1NC(=O)c1cc(C(F)(F)F)nc2c(Cl)cc(Cl)cc12 [Example 11]
8.18

Param item: Cc1nn(Cc2ccc(C#N)cc2)c(C)c1NC(=O)c1cc(C(F)(F)F)nc2ccc(-c3c(C)noc3C)cc12 [Example 1198]
6.41

Thanks! And Cc1nn(C[C@@H]2CCC(=O)N2)c(C)c1NC(=O)c1cc(C(F)(F)F)nc2ccc(Br)cc12 [Example 1266] ?
5.60

Can you handle Cc1c(NC(=O)c2cc(S(C)(=N)=O)nc3ccccc23)c(C(F)(F)F)nn1Cc1ccc(C#N)cc1 (racemic) [Example 387] next?
6.84

Now give it for Cc1ccc2nc(C)cc(C(=O)Nc3c(C)nn(Cc4ccc(C(C)(C)C)cc4)c3C)c2c1 [Example 1290] too.
5.15

Another molecule to check: Cc1c(NC(=O)c2cc(C(N)=O)nc3cccc(F)c23)c(C(F)(F)F)nn1Cc1ccc(C(C)(C)C#N)cc1 [Example 1597]
7.05

Next entry: Cc1c(NC(=O)c2cc(C(N)=O)nc3cc(F)c(Cl)cc23)c(C(F)(F)F)nn1Cc1cccc(S(C)(=O)=O)c1 [Example 1638]
7.21

Param item: Cc1ccc2nc(C)cc(C(=O)Nc3c(C)nn(Cc4ccccc4C)c3C)c2c1 [Example 111]
6.15

Item: Cc1nn(Cc2noc(C(=O)N(C)C)n2)c(C)c1NC(=O)c1cc(C(N)=O)nc2ccccc12 [Example 1521]
5.78

Also, Cc1c(NC(=O)c2cc(C(N)=O)nc3cc(F)c(F)cc23)c(C(F)(F)F)nn1Cc1ccc(C#N)cn1 [Example 364] please.
8.18
